- ASSAY: protein stability index of a GFP-peptide fusion (GPS, HEK-293T) (PSI 1-6); higher = more stable;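 also: 24-mer peptide tiles fused after GFP, lentivirally expressed, FACS-sorted into six equal bins by GFP/DsRed ratio, decoded by Illumina sequencing, PSI is the read-weighted mean bin number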
- EXPERIMENTAL SETUP: treatment: MLN4924 1 uM, 8 h; c terminus: a fixed tail appended
PROPERTY NAME: protein stability index
Could you respond with only the numeric value?

A selection of reference data follows.
# PRIMARY SEQUENCE, protein stability index
data = [
    ("QNVVVKTLWKHQFAWPFYQPVDAI [BRD3]", 2.29),
    ("IGVAGNHWDGYSKGVNRKLGRTGL [FUT8]", 2.9),
    ("IEDLRAQIFANTVDNARIVLQIDN [KRT18]", 2.67),
    ("DPTWIESPKTNGHIENGPFSLEQQ [SRPK2]", 4.75),
    ("IGIPLFFLELAVGQRIRRGSIGVW [SLC6A17]", 2.28),
    ("EEDDDDDDDDNLPQLKKESELPFV [ANKRD40]", 5.42),
]

Alright, here's another sequence for you.
Can you share its protein stability index? I mean this sequence: PSLSPGSSCVKYLIFLSNFPFSLL [TSPAN10]
2.83

Where these numbers come from: the supplement of paper PMC10567573
